pKi, UniProtKB P07550: measured values
In simple prose, pKi is minus the logarithm base ten of a concentration in moles per litre.

CCCc1cc2c(cc1CCC)CC(NC[C@H](O)c1ccc(O)c3[nH]c(=O)ccc13)C2
6.92
Cc1cc2c(cc1C)CC(NC[C@H](O)c1ccc(O)c3[nH]c(=O)ccc13)C2
6.28
COc1cc2c(cc1OC)CC(NC[C@H](O)c1ccc(O)c3[nH]c(=O)ccc13)C2
6.47
O=c1ccc2c([C@@H](O)CNC3Cc4ccccc4C3)ccc(O)c2[nH]1
6.66
COc1ccc(C[C@@H](C)NC[C@H](O)c2ccc(O)c3[nH]c(=O)ccc23)cc1
8.50

We next turn to a different molecule, shown below.
# value of pKi, UniProtKB P07550, item CCc1cc2c(cc1CC)CC(NC[C@H](O)c1ccc(O)c3[nH]c(=O)ccc13)C2 = 7.12

---

experimental_target: Beta-2 adrenergic receptor (Homo sapiens, UniProt P07550)
Sequence (P07550 whole entry): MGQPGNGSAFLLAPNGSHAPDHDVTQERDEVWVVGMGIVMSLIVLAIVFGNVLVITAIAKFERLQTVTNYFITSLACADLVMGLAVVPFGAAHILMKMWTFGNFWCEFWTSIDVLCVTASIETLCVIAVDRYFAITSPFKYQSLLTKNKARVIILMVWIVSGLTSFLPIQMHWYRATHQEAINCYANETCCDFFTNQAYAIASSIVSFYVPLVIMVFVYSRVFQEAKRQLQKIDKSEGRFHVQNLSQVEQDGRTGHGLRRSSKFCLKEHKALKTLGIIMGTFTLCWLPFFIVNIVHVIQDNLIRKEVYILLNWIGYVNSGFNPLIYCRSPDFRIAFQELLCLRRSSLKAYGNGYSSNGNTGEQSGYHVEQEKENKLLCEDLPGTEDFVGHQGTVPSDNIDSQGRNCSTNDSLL
assay_metric: EC50

CCCCc1cc2c(cc1CCCC)CC(NC[C@H](O)c1ccc(O)c3[nH]c(=O)ccc13)C2
0.025 µM
COc1ccc(C[C@@H](C)NC[C@H](O)c2ccc(O)c3[nH]c(=O)ccc23)cc1
0.00076 µM
O=c1ccc2c([C@@H](O)CNC3Cc4ccccc4C3)ccc(O)c2[nH]1
0.005 µM

Per the reported Beta-2 adrenergic receptor (Homo sapiens, UniProt P07550) data, COc1cc2c(cc1OC)CC(NC[C@H](O)c1ccc(O)c3[nH]c(=O)ccc13)C2 has EC50 of 0.018 µM

EC50 for Beta-2 adrenergic receptor (Homo sapiens, UniProt P07550) with input CCc1cc2c(cc1CC)CC(NC[C@H](O)c1ccc(O)c3[nH]c(=O)ccc13)C2 equals 0.011 µM

Beta-2 adrenergic receptor (Homo sapiens, UniProt P07550) assay, molecule Cc1cc2c(cc1C)CC(NC[C@H](O)c1ccc(O)c3[nH]c(=O)ccc13)C2 , recorded EC50 = 0.039 µM

# lookup: CCCc1cc2c(cc1CCC)CC(NC[C@H](O)c1ccc(O)c3[nH]c(=O)ccc13)C2 on Beta-2 adrenergic receptor (Homo sapiens, UniProt P07550), EC50 = 0.014 µM

Value sought: EC50, system Beta-2 adrenergic receptor (Homo sapiens, UniProt P07550), item CCc1ccc(CC)c2c1CC(NC[C@H](O)c1ccc(O)c3[nH]c(=O)ccc13)C2 . Result: 0.115 µM

---

protocol_description: Intrinsic clearance in rat liver microsomes assessed per mg of protein at 1 uM after 10 to 30 mins by LC/MS analysis in presence of NADPH
Assay type: ADME, Microsome
assay_metric: microsomal CLint at 1 µM (µL/min/mg)
State the answer as a number, implicitly in µL/min/mg.

# microsomal CLint at 1 µM (compound: CCc1cc2c(cc1CC)CC(NC[C@H](O)c1ccc(O)c3[nH]c(=O)ccc13)C2 ) is 76

---

pIC50 values, listed per item
experimental_target: Beta-2 adrenergic receptor (Cavia porcellus, UniProt Q8K4Z4)
Sequence (Q8K4Z4 whole entry): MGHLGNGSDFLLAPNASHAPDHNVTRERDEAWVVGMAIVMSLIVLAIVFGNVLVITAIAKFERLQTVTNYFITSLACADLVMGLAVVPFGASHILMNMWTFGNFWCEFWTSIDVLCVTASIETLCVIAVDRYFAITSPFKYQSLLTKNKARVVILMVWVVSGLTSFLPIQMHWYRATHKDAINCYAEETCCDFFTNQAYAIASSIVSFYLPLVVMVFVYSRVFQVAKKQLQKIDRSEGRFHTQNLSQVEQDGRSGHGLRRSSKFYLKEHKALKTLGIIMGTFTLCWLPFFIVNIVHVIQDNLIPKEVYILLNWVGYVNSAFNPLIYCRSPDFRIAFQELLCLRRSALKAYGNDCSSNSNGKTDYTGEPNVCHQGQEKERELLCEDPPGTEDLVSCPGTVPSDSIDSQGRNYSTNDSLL
Value format note: pIC50 is -log10 of concentration (mol/L); just state the number.

Please review the entries below; each comes with its answer.
CCc1ccc(CC)c2c1CC(NC[C@H](O)c1ccc(O)c3[nH]c(=O)ccc13)C2
7.12
COc1ccc(C[C@@H](C)NC[C@H](O)c2ccc(O)c3[nH]c(=O)ccc23)cc1
9.52
COc1cc2c(cc1OC)CC(NC[C@H](O)c1ccc(O)c3[nH]c(=O)ccc13)C2
8.64

Okay, next one:
Value (pIC50, Beta-2 adrenergic receptor (Cavia porcellus, UniProt Q8K4Z4)) for record O=c1ccc2c([C@@H](O)CNC3Cc4ccccc4C3)ccc(O)c2[nH]1 = 9.08
